Reported enrichment values follow for various variants
B1: peptide HD2 (from tick evasin EVA4) / CCL1 (biotinylated, synthetic) (parent)
chain 1: EEDDYTAYAPLTCYFT
chain 2: KSMQVPFSRCCFSFAEQEIPLRAILCYRNTSSICSNEGLIFKLKRGKEACALDTVGWVQRHRKMLRHCPSKRK

variants of: B1; details: with CCL1 (biotinylated, synthetic); scale: log2
Lab note: record just the number, no unit beside it.

// chain 1 EEDDYTAYCPLTCYFT [chain 1 A9C] : enrichment value = -9.32

// chain 1 EEDDATAYAPLTCYFT [chain 1 Y5A] : enrichment value = -6.3

// chain 1 CEDDYTAYAPLTCYFT [chain 1 E1C] : enrichment value = -8.98

// chain 1 EEKDYTAYAPLTCYFT [chain 1 D3K] : enrichment value = -4.59

// chain 1 EEDDRTAYAPLTCYFT [chain 1 Y5R] : enrichment value = -6.28

Others:
// chain 1 EEDDYTANAPLTCYFT [chain 1 Y8N] : enrichment value = -7.36
